Would you kindly list self-cleavage kobs at 2500 uM GlcN6P for each of these variants?
B1: glmS ribozyme (parent)
chain: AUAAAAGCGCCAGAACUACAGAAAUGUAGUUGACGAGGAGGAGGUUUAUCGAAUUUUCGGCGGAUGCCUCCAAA

- Variants of: B1
- measurement-description: self-cleavage kobs at 2500 uM GlcN6P; higher = faster cleavage; RNA array
- assay-context: with glucosamine-6-phosphate
This sample holds only a part of the variants without activity.

# get_value(readout='self-cleavage kobs at 2500 uM GlcN6P', item= U30G A53C U54A ) 0.000695 s⁻¹

What do you have for C8A G43U ? < 1e-05 s⁻¹

What do you have for A48G U69G ? 0.000101 s⁻¹

What do you have for G29C A39G ? 0.00223 s⁻¹

What do you have for U30C G40A ? 4.56e-05 s⁻¹

What do you have for A42C G66A ? 0.000208 s⁻¹

What do you have for G38U A64G ? < 1e-05 s⁻¹

What do you have for A14U U30C G43A ? < 1e-05 s⁻¹

What do you have for G41C A42G C70A ? 6.34e-05 s⁻¹

What do you have for C8G A42U C58U ? < 1e-05 s⁻¹

What do you have for U30G C70U ? 0.00367 s⁻¹

What do you have for G40U A48U A52U ? < 1e-05 s⁻¹

What do you have for C16G A52G U69G ? 0.000143 s⁻¹

What do you have for C67U C70G ? 2.88e-05 s⁻¹

What do you have for G7U A53G U69G ? 9.39e-05 s⁻¹

What do you have for A14G U49G ? 0.00109 s⁻¹

What do you have for A48U U56A ? 9.99e-05 s⁻¹

What do you have for A33U U57G C68G ? 0.000205 s⁻¹

What do you have for G13U U54A ? 0.00105 s⁻¹

What do you have for G32C A64G C70A ? < 1e-05 s⁻¹

What do you have for G29A A53G ? 0.00162 s⁻¹

What do you have for C16G G29U C34G ? < 1e-05 s⁻¹

What do you have for U47A U55G ? 0.0105 s⁻¹

What do you have for C10A G51U C67G ? 0.000109 s⁻¹

What do you have for G41A A42U G62A ? < 1e-05 s⁻¹

What do you have for U31C G32C A33U C34A U49A ? < 1e-05 s⁻¹

What do you have for C16U G35U G62U G63U ? < 1e-05 s⁻¹

What do you have for C10G C11G A33U C68G ? 9.09e-05 s⁻¹

What do you have for A39C G59A G62C ? < 1e-05 s⁻¹

What do you have for G43C U46C ? < 1e-05 s⁻¹

What do you have for G7A G9A G38A U65G ? < 1e-05 s⁻¹

What do you have for A12U A33C G41U G62C ? < 1e-05 s⁻¹

What do you have for C8A A14G U57C ? < 1e-05 s⁻¹

What do you have for `A15U` ? 0.00682 s⁻¹

What do you have for A12G G13U ? 6.89e-05 s⁻¹

What do you have for C11U U30C C71A ? 6.85e-05 s⁻¹

What do you have for U65G C68A ? 5.3e-05 s⁻¹

What do you have for C58U G62A ? < 1e-05 s⁻¹

What do you have for G38C G43U ? < 1e-05 s⁻¹

What do you have for A12U A33U A42G G51C U55A C71G ? < 1e-05 s⁻¹

What do you have for G9C G63U G66A C68A C71A ? < 1e-05 s⁻¹

What do you have for G32C A39G A53G G62A ? < 1e-05 s⁻¹

What do you have for U31C G40U U47A ? 0.000154 s⁻¹

What do you have for G7U C16U U46A ? < 1e-05 s⁻¹

What do you have for C16G G35C A48G U57C G62A C67A U69A ? < 1e-05 s⁻¹

What do you have for C8G G44A ? < 1e-05 s⁻¹

What do you have for U31C G43U A48U U55A ? < 1e-05 s⁻¹

What do you have for C8U C50G ? 0.000229 s⁻¹

What do you have for A12G U45G U54G ? 0.000192 s⁻¹

What do you have for U31C G37C A48G U49G U54C C71A ? < 1e-05 s⁻¹

What do you have for C16A G60U ? < 1e-05 s⁻¹

What do you have for C8U A52U C58U A64C C70U ? < 1e-05 s⁻¹

What do you have for U55A U56G ? 0.00771 s⁻¹

What do you have for C11U A14G A39C ? 0.000528 s⁻¹

What do you have for C16A A53U U55A ? 0.000149 s⁻¹

What do you have for A14C C70U ? 0.00439 s⁻¹

What do you have for G37C A52C ? < 1e-05 s⁻¹

What do you have for G29U A53C ? 0.00118 s⁻¹

What do you have for U31A A33U A48G ? < 1e-05 s⁻¹

What do you have for G9U G41C A42U G44A ? < 1e-05 s⁻¹

What do you have for G38C G59C C67G ? < 1e-05 s⁻¹

What do you have for G7U U47G A52U ? < 1e-05 s⁻¹

What do you have for A12C G29A G43U C71G ? < 1e-05 s⁻¹

What do you have for C34G C58A C71U ? < 1e-05 s⁻¹

What do you have for G9C C11G C71U ? < 1e-05 s⁻¹

What do you have for G9C A39C C67A ? < 1e-05 s⁻¹

What do you have for G9U C10G A15G G38U A39G A52U ? < 1e-05 s⁻¹

What do you have for G37A G40C U47G U56G G60C C71G ? < 1e-05 s⁻¹

What do you have for A33C U56G ? 5.24e-05 s⁻¹

What do you have for U30A A48U G62A ? < 1e-05 s⁻¹

What do you have for C67G C70U ? 9.79e-05 s⁻¹

What do you have for A14G A64U ? 0.000199 s⁻¹

What do you have for A36G U57A ? < 1e-05 s⁻¹

What do you have for C16G U47C ? 0.000192 s⁻¹

What do you have for A6G A14G C16U G32U G35C G41C C50A C71G ? < 1e-05 s⁻¹

What do you have for C50G G59U C68G ? 0.000102 s⁻¹

What do you have for A12G U56G C70G ? 0.000113 s⁻¹

What do you have for C8G A42C U47A ? < 1e-05 s⁻¹

What do you have for A33U G38U G41C G66U ? < 1e-05 s⁻¹

What do you have for C10U G43U ? < 1e-05 s⁻¹

What do you have for C8U C16A A39C U46C G51A U65G U69A ? < 1e-05 s⁻¹

What do you have for C11U G29C ? 0.000109 s⁻¹

What do you have for G7U A53U A64G ? < 1e-05 s⁻¹

What do you have for A12C A15G G43C ? < 1e-05 s⁻¹

What do you have for U47A G66U ? 0.00244 s⁻¹

What do you have for C8G G41U ? < 1e-05 s⁻¹

What do you have for A33C U47C U65G ? < 1e-05 s⁻¹

What do you have for U55G C71G ? 0.000704 s⁻¹

What do you have for G35A G59C ? < 1e-05 s⁻¹

What do you have for G38C U47A ? < 1e-05 s⁻¹

What do you have for C11U A42U G43U A53G C68G ? 0.0001 s⁻¹
